- test-system: prostate specific membrane antigen (PSMA) (Homo sapiens, UniProt Q04609)
- Construct: gene FOLH1
- Sequence (Q04609 whole entry): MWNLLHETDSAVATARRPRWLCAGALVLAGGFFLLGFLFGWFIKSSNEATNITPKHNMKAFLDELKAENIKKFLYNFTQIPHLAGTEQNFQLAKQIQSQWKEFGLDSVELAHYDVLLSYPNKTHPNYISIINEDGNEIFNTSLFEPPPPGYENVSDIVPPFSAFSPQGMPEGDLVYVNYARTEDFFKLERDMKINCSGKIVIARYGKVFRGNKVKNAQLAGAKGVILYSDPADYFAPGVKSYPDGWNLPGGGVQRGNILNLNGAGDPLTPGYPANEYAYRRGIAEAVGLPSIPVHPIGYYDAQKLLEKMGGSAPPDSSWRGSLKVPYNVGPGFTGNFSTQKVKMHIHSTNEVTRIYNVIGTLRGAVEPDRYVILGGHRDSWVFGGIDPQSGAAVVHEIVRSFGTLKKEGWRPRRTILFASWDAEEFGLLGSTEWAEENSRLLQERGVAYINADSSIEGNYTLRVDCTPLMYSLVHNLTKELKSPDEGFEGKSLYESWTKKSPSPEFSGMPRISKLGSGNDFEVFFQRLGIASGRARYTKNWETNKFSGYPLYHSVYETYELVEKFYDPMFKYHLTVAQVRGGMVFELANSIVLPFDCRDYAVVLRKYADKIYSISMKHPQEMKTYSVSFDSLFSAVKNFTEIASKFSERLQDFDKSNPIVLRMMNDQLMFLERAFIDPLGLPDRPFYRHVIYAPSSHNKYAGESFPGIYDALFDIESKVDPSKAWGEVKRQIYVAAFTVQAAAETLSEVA
- procedure-text: competitive radioligand binding on PSMA-positive LNCaP cells (reference ligand)
- Type: cell-based
Hi there, I'd appreciate the recorded pIC50 for every entry that follows.
Answers are plain numbers, as −log10 of the molar value.

• O=C(O)CCc1ccc(O)c(CN(CCN(CC(=O)O)Cc2cc(CCC(=O)NCCCCCC(=O)NCCCC[C@H](NC(=O)N[C@@H](CCC(=O)O)C(=O)O)C(=O)O)ccc2O)CC(=O)O)c1 = 7.76

Note: attention shifts to another entry.
Please give the measured pIC50 for this compound: `O=C(O)CC[C@H](NC(=O)N[C@@H](CCCCNC(=O)[C@H](Cc1ccc2ccccc2c1)NC(=O)[C@H]1CC[C@H](CNC(=O)CN2CCN(CC(=O)O)CCN(CC(=O)O)CCN(CC(=O)O)CC2)CC1)C(=O)O)C(=O)O`
7.82

----------
- test-system: prostate specific membrane antigen (PSMA) (Homo sapiens, UniProt Q04609)
- Construct: gene FOLH1
- procedure-text: competitive radioligand binding on PSMA-positive LNCaP cells vs […]Ga-PSMA-10
- Assay type: cell-based
measurement-name: IC50 (nM)
Answers are plain numbers, in nM.

For `NC[C@H]1CC[C@H](C(=O)N[C@@H](Cc2ccc3ccccc3c2)C(=O)NCCCC[C@H](NC(=O)N[C@@H](CCC(=O)O)C(=O)O)C(=O)O)CC1` , what is its reported IC50?
21.5

Attribution: paper PMC10218109
